assay: gradient 5% acetonitrile 3 min, to 50% in 2 min, to 85% in 15 min, held 3 min, 100 µL/min; conditions: column: Zorbax Extend-C18 2.1 x 50 mm; eluents: water / acetonitrile, 0.1% formic acid
quantity measured: RP-LC retention time (s)

compound	u	endpoint result
CC1=C(N2CC2)C(=O)C(CO)=C(N2CC2)C1=O	s	585
Cc1cc(C)c(S(=O)(=O)N2CCn3c(nn(CC4CC4)c3=O)C2)c(C)c1	s	870
COc1ccc(-c2cn3ccn(-c4ccc5c(c4)CCC5)c(=O)c3n2)cc1OC	s	846
O=C(Nc1c(-c2ccccc2)nc2ccccn12)c1c(F)cccc1F	s	630
CC(C)(C)C(=O)Nc1nc2cc3c(cc2s1)OCO3	s	823
CCCc1c(C(=O)O)nnn1-c1ccc(C)cc1F	s	761
O=C(Cn1nc2n(c1=O)CCCCC2)Nc1ccc(Br)cc1	s	726
O=C(NC1CC1)c1ccc(OCC2CCCN(C(=O)c3ccoc3)C2)cc1 (centres undefined)	s	712
O=C(Cn1cnc2c(sc3nc(-c4ccccc4)ccc32)c1=O)Nc1ccc(Cl)cc1F	s	1110
Cc1sc2ccn(C)c(=O)c2c1C(=O)N1CCC2(CC1)OCCO2	s	626
O=C(NCC1CCCO1)N1CCc2[nH]nc(-c3ccccc3)c2C1 (centres undefined)	s	644
CC1(C)CC(NC(=O)COc2ccc(Cl)cc2)CC(C)(C)N1	s	623
Cc1cc(C(=O)NCc2ccc(C)o2)c2c(C)nn(-c3ccccc3)c2n1	s	964
CC1(C(=O)NCc2ccc(F)cc2)CCN(C(=O)Nc2ccc(F)cc2)CC1	s	804
C=CCN1CCN(c2ccc3nnc(CCc4nc(-c5ccc(F)cc5)no4)n3n2)CC1	s	622
CCC(=O)N1CC(n2cc(C(=O)NCC3CC3)nn2)C1	s	617
CCCN1CCN(CCCNC(=O)c2sc3ncccc3c2-n2cccc2)CC1	s	574
O=S(=O)(C1CC1)N1CCCCC1c1nncn1Cc1ccccc1 (centres undefined)	s	722
CCOc1ccc(-c2noc(CN3C(=O)COc4ccc(Cl)cc43)n2)cc1OC	s	1050
Cc1ccc(N2CCN(C(=O)c3sc4ncccc4c3-n3cccc3)CC2)c(C)c1	s	1260
O=S(=O)(c1ccc(Cl)cc1)N1CCC(c2nc(-c3cccc(-c4ccn[nH]4)c3)no2)CC1	s	994
O=C(c1nccc2ccccc12)N1CCC(c2noc(C3CC3)n2)C1 (centres undefined)	s	745
COc1ccc(OC)c(S(=O)(=O)NC2CCc3nn(CC4CC4)c(=O)n3CC2)c1 (centres undefined)	s	707
CC(C)Cn1cc(CCNC(=O)c2cccc(Br)c2)c2cccnc21	s	922
O=C(NC1CCCCC1)c1c2c(nc3ccccc13)CCC2	s	690
O=C(NCCCN1CCCC1)c1ccc(-c2ccc(N3CCSCC3)nc2)cc1	s	574
O=C(CCn1cnc2cc(-c3noc(C4CC(=O)N(c5ccccc5)C4)n3)ccc21)N1CCCC1 (centres undefined)	s	659
CCN(CCNS(=O)(=O)c1ccc2[nH]c(=O)ccc2c1)Cc1ccccc1	s	597
Cc1cc(C)n(CCNC(=O)c2cnccn2)n1	s	566

###

experiment: gradient 5% acetonitrile 3 min, to 50% in 2 min, to 85% in 15 min, held 3 min, 100 µL/min; settings: column: Zorbax Extend-C18 2.1 x 50 mm; eluents: water / acetonitrile, 0.1% formic acid
Criterion: RP-LC retention time strictly under 900 s. Met: 1 (yes). Not met: 0 (no).

compound	qualitative label
COC(=O)Cn1c(=O)c2c(nc3n2CCCN3c2ccc(Cl)cc2)n(C)c1=O	1 (yes)
O=C(NCc1ccccc1)N1CCN(c2ncccc2-c2nnc(C3CC3)o2)CC1	1 (yes)
COc1ccc(-c2nc(NCCCN3CCC(N4CCCCC4)CC3)c3ccccc3n2)cc1	0 (no)
CCn1cc(C2=CCN(S(=O)(=O)c3ccc(C(C)(C)C)cc3)CC2)c2cccnc21	0 (no)
O=C(CCN1C(=O)c2ccccc2S1(=O)=O)Nc1nc(-c2ccccc2)cs1	0 (no)
Cc1ccc(-c2noc(CCN3CCN(c4ccccc4)CC3)n2)cc1	1 (yes)
O=C(Cc1cccc(F)c1)Nc1cc(-c2cccs2)no1	0 (no)
CCCC(NC(=O)CCc1ccc(OC)cc1)C(=O)Nc1nc2ccccc2[nH]1 (stereo unspecified)	1 (yes)
CSc1ccccc1CN1CCC(CNS(=O)(=O)/C=C/c2ccccc2)CC1	1 (yes)
COc1ccc(NC(=O)C2CCCN(c3cnc4nc(C)c(C)nc4c3)C2)c(C)c1 (stereo unspecified)	1 (yes)
